Just for reference, patent US20200222478A1 is where these values come from.

Here the recorded exchange rate vs Pos peptide is given for each entry.
Tgt: T1, HLA-A*01:01 (human, biotinylated heavy chain)
T1 construct: Conditional HLA class I complex first loaded with a UV-labile peptide, which is cleaved by UV and exchanged for the test peptide; captured on streptavidin by its biotinylated heavy chain; also called conditional HLA class I complex
Protocol: UV peptide exchange + HLA class I ELISA
Measured attribute: exchange rate vs Pos peptide (%)

{"Binder": "NMVENGCYL [P59 9-mer peptide (FOXA1 (F254V))]", "Measured attribute": "exchange rate vs Pos peptide", "Result value": 2.2}
{"Binder": "FPVGAEGTF [P27 9-mer peptide (FAM126B-ORC2 fusion)]", "Measured attribute": "exchange rate vs Pos peptide", "Result value": 4.8}
{"Binder": "GVLRRLLCR [P37 9-mer peptide (TSTD1-F11R fusion)]", "Measured attribute": "exchange rate vs Pos peptide", "Result value": 1.4}
{"Binder": "NSKMALNSL [P35 9-mer peptide (TMPRSS2-ERG fusion)]", "Measured attribute": "exchange rate vs Pos peptide", "Result value": 2.5}
